Target system: T1, VEGF-D (recombinant human; source not given) (human, UniProt O43915 89-205, limits assumed)
T1 construct: also used here as target of IC50 values averaged over Source 1 and Source 2; also called vascular endothelial growth factor-D
T1 sequence: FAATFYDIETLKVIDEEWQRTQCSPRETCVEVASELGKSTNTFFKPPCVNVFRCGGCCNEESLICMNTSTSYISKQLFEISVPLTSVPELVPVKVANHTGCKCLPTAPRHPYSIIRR
Experimental details: SPR (BIAcore) off-rate ranking of scFv clones
Listed next: entries and their corresponding koff.

| Binder | Unit tag | koff |
| --- | --- | --- |
| scFv clone HW78 (scFv) scFv: QVQLVQSGAEVKQPGASVKVSCKARGYTFTGYNMYWVRQAPGQGLEWMGYIDPYNGDTTYNQKFKGRVTMTTDTSTGTAYMKLRSLRSDDTAVYYCARTSYYGGMDYWGRGTLVTVASGGGASGGGGSGGGGSDIVMTQTPLSSPVTLGQPASISCRSSQSLVHSNGNTYLHWLQQRPGQPPRLLIYKVSNRFSGVPDRFSGSGAGTDFTLKISRVEAEDVGVYYCSQSTHVPRTFGQGTKLEIKR | s⁻¹ | 0.00189 |
| scFv clone CW16 (scFv) scFv: QVQLVQSGAEVKQPGASVKVSCKASGYTFTGYNMYWVRQAPGQGLEWMGYIDPYNGDTTYNQKFKGRVTMTTDTSTSTAYMELRSLRSGDTAVYYCARTSYYGGMDYWGRGTLVTVASGGGASGGGGSGGGGSDIVMTQTPLSSPATLGQPASISCRSSQSLVHSNGNTYLHWLQQRPGQPPRLLIYKVSNRFSGVPDRFSGSGAGTDFTLKISRVEAEDVGVYYCSQSTHVPRTFGQGTKLEIKR | s⁻¹ | 0.00726 |
| scFv clone AC75 (scFv) scFv: QVQLVQSGAEVKQPGASVKVSCKASGYTFTGYNMYWVRQAPGQGLEWMGYIDPYNGDTTYNQKFKGRVTMTTDTSTSTAYVELRSLRSDDTAVYYCARTSYYGGMDYWGRGTLVTVASGGGASGGGGSGGGGSDIVMTQTPLSSPVTLGQPASISCRSSQSLVHSNGNTYLHWLQQRPGQPPRLLIYKVSNRFSGVPDRFSGSGAGTDFTLKISRVEAEDVGVYYCSQSTHVPRTFGQGTKLEIKR | s⁻¹ | 0.00637 |

The origin of these recorded values is patent US20120093811A1.
